These measurements were taken from PubChem BioAssay (NCI).

A collection of compounds and their measured TGI
- Test system: M19-MEL melanoma
- method.description: NCI tumour cell line growth inhibition, 48 h
Write the value in µM as a bare number.

In the examples that follow, each entry is paired with its recorded TGI.
CN(C)C(=S)Nc1nnc(NC23CC4CC(CC(C4)C2)C3)s1; 43.6
Cc1ccc2nc3c(Cl)cc(=O)cc-3sc2c1; 36
C/C=C/C=N/N(c1nnc(-c2ccccc2)c(-c2ccccc2)n1)S(=O)(=O)c1ccc(C)cc1; 36.3

The compound listed as COC1/C=C\C=C(/C)C(=O)NC2=CC(=O)C=C(C2=O)C(OC)C(C)CC(OC)C(OC)C(C)/C=C(/C)C1OC(N)=O (centres undefined) has a reported TGI of 18

Documented TGI of Cc1ccc2nc3c(C(=O)NCCN(C)C)cccc3cc2c1 : 4.66

TGI measured on C=CCn1c2ccccc2c2c(C)c3cnccc3c(C)c21 = 58

Per the records, this compound ( Cc1cc(C)nc(NS(=O)(=O)c2ccc(Nc3c4ccccc4nc4c(C(=O)NCCN(C)C)ccc(Cl)c34)cc2)n1 ) has TGI equal to 7.84

So, CCCCCCCCCCCCCCCCOC(=O)C(C(=O)OCCCCCCCCCCCCCCCC)[N+](C)(C)CCOC(C)=O ? Its TGI was 30.4

Query Clc1ccccc1C(n1cc(Br)cn1)n1cc(Br)cn1 yields TGI of 34.5

---

- System: NCI-H460 lung
- method.description: NCI tumour cell line growth inhibition, 48 h
assay.endpoint: TGI (µM)
Please state the figure in µM; there is no need to write the unit.

Cc1csc2c(P(=O)(OC(C)C)OC(C)C)c(-c3ccccc3)cn12; 30.1

Per the records, this compound ( C/C(Cl)=N\OC(=O)Nc1ccc([N+](=O)[O-])cc1 ) has TGI equal to 38.8

---

- Tested on: SF-268 CNS
- method.description: NCI tumour cell line growth inhibition, 48 h
Recorded TGI values for a group of compounds are listed next.

# example entries with known answers
COC(=O)N1CC[C@@H]2CCC=C(c3cccc4c3OCO4)[C@@H]21; > 100 µM
Cc1cccc(CN(C)c2ccc(CO)c(Cl)c2)c1; > 100 µM
COc1cc(/C=C2\C(=O)N(c3cccc(Cl)c3)C(c3ccccc3)S2(=O)=O)cc(OC)c1OC (stereo not given); > 100 µM
COC(=O)C(C(=O)C(=O)Nc1cccc(O)c1)c1nc2ccc(Cl)cc2[nH]c1=O (stereo not given); > 100 µM
Clc1cc2nc(C3CCCO3)[nH]c2cc1Cl (stereo not given); > 100 µM
Cc1cc(C)nc(NS(=O)(=O)c2ccc(Nc3c4ccccc4nc4c(C(=O)NCCN(C)C)ccc(Cl)c34)cc2)n1; 8.11 µM
O=C1CCc2c3c(c4c([nH]c5ccccc54)c2CC1)C(=O)NC3=O; > 100 µM
CCN(CC)CCn1ncc2ccc3c(c(=O)c4cccnc4n3CCN(CC)CC)c21; 4.66 µM
CSCCC(NC(=O)C(Cc1ccccc1)NC(=O)CNC(=O)CNC(=O)C(N)Cc1ccc(O)cc1)C(=O)O (stereo not given); > 100 µM

Now consider a different compound.
Per the record, CCSC1(SCC)CCN(C=NC(C)(C)C)C1 has TGI of > 100 µM

---

- Tested on: RXF 393 renal
- method.description: NCI tumour cell line growth inhibition, 48 h
Each entry below carries its reported TGI.

Take a look at these entries with their results.
CCOc1ccccc1NC(=O)C(=O)CC(=O)C1=C(C)Nc2ccccc2S1; > 100 µM
COc1ccc(/C=C/C(=O)c2sc(N)nc2C)cc1; > 100 µM
OC(c1ccccc1)(c1ccccc1)c1ccccn1; > 100 µM

Record O=C(NCCCN1CCN(CCCNC(=O)c2cnc3ccccc3n2)CC1)c1cnc2ccccc2n1 ; system RXF 393 renal; TGI = > 100 µM

Case CC(=O)OC1C=CC2CCN3C(=O)c4cc5c(cc4[C@H]1C23)OCO5 (some centres not stated) , RXF 393 renal, TGI recorded as > 100 µM

Short answer on RXF 393 renal for COc1c(OC(C)=O)cc2c(OC(C)=O)c1CC(C)CC(OC)C(O)C(C)/C=C(\C)C(OC(N)=O)C(OC)/C=C\C=C(/C)C(=O)N2 (configuration not stated) , TGI: > 100 µM

RXF 393 renal data for Nc1[nH]c(=O)nc2sc3c(c12)CCCC3 ; its TGI: > 100 µM

Record for COc1ccc(/C=C2/C(=O)N(C(=O)c3ccccc3O)N=C2C)cc1OC under target or system RXF 393 renal: TGI reported as 0.097 µM

Let me check: Cc1nn2c(N)cc(=O)nc2nc1/C=C/c1ccc(N(C)C)cc1 , system RXF 393 renal, measured TGI is > 100 µM

// returns TGI for C[N+](C)(C)CCOP(=O)(O)OP(=O)([O-])OCC1CCC(n2ccc(N)nc2=O)O1 (configuration not stated) with RXF 393 renal; value = > 100 µM

Entry CCCCCCN(CCCCCC)CCCNc1nccc2ccccc12 , RXF 393 renal data, TGI value: 5.3 µM

Known value: RXF 393 renal TGI of the molecule CC(C)c1cc(C(C)C)c(S(=O)(=O)NN)c(C(C)C)c1 equals > 100 µM

# TGI measured on RXF 393 renal for item CC/C(=N\Nc1nc2ccccc2n1C)c1ccccn1 = 1.41 µM

Param item: COc1ccc2c(c1)/C(=C(\C(Cl)=C(\Cl)N1CCCCC1)[N+](=O)[O-])N2 ; param system: RXF 393 renal; output TGI: > 100 µM

---

Let's look at some molecules and their measured TGI.
- System: MDA-N
- method.description: NCI tumour cell line growth inhibition, 48 h

Here's what some known entries look like.
CC(=O)Nc1ccc2nncnc2c1; > 100 µM
CS(C)(=O)=N/C=C\C(=O)C(Cl)(Cl)Cl; > 100 µM
CCCCCCCCCc1cc(O)c(O)cc1CCCCCCCCC; > 10 µM
Cc1cccc2c1Oc1cc(Cl)ccc1C2NC(=O)CCN1CCCCC1 (centres undefined); 33.1 µM
COC(=O)C12CCC(C(=O)OC)(Cc3c(c4ccccc4n3S(=O)(=O)c3ccccc3)C1)C2=O (centres undefined); > 100 µM
Nc1ccc2c(c1)C(=O)c1ccc(F)cc1-2; > 100 µM
COc1ccc2c(c1)/C(=C(\C(Cl)=C(Cl)Cl)[N+](=O)[O-])N2; > 100 µM
COC1/C=C/C(C)C(OC)CC(O)/C=C/C(C)C(C(C)C(OC)C(C)CCC(=O)C(C)C(C/C=C/N(C)C=O)OC)OC(=O)/C=C/C=C(\C)CC(OC)C(OC)C2=CC(=O)O[C@@H](C(C)C(OC)C1)[C@H]2O (some centres undefined); 0.159 µM
C/C(Cl)=N\OC(=O)Nc1ccc([N+](=O)[O-])cc1; 25.1 µM
NC(=O)c1cnc2sc3ccccc3n2c1=O; > 100 µM

Recorded result, NS(=O)(=O)c1nnc(NC(=O)CCC(=O)O)s1 , TGI: > 100 µM

Documented TGI of CCCCc1ccc(Nc2nc3c(ncn3C3OC(COC(C)=O)C(OC(C)=O)C3OC(C)=O)c(=O)[nH]2)cc1 (centres undefined) : 35.4 µM

The measured TGI associated with COc1ccc2c(c1)/C(=C(\C(Cl)=C(\Cl)N1CCCCC1)[N+](=O)[O-])N2 reads > 100 µM

Reported TGI for CN(Cc1cnc2nc(N)nc(N)c2n1)c1ccc(C(=O)NC(CCS(=O)(=O)O)C(=O)O)cc1 (centres undefined) was > 100 µM

get_value(item= OC(c1cc(C(O)(C(F)(F)F)C(F)(F)F)ncn1)(C(F)(F)F)C(F)(F)F , readout=TGI) returns > 10 µM

Lab book: TGI of CC1=C(C)C(=O)OC(C(C)(O)C2(O)CCC3(O)C4CC(Cl)C5(O)C(O)C=CC(=O)C5(C)C4CCC32C)C1 (centres undefined) noted as > 100 µM

N#CC12COC3(CCCCC3C1(C#N)C#N)OC2=N (centres undefined) yielded TGI of 25.5 µM

Data point: CCOC(=O)C(Cc1ccc2c(c1)CCC2)(Cc1ccc2c(c1)CCC2)C(=O)OCC ; TGI = > 100 µM

In plain terms, Cc1c2c(c(C)c3c[n+](C)ccc13)Oc1ccccc1O2 has a documented TGI of 53.5 µM

---

# maps each entry to its TGI
- Tested on: HCC-2998 colon
- method.description: NCI tumour cell line growth inhibition, 48 h

Please review the following examples before continuing.
Cc1c2c(c(C)c3c[n+](C)ccc13)Oc1ccccc1O2; 19.8 µM
Cn1c(-c2ccccc2)cc(-c2ccc3c(c2)OCO3)c1-c1cccs1; > 100 µM

Entry O=C(Oc1cccnc1)c1ccccc1Nc1ccnc(C(F)(F)F)c1 , TGI reported as 15.1 µM

Kindly note the recorded TGI for CCOC(=O)C(SCCO)C(C(=O)OCC)n1ccc(N)nc1=O (stereo not given) , which is > 100 µM

Recorded TGI (molecule Cn1cc(-c2csc(-c3c[nH]c4ncccc34)n2)c2cc(Br)cnc21 ): > 100 µM

response.value for CC1=C(C)C(=O)OC(C(C)(O)C2(O)CCC3(O)C4CC(Cl)C5(O)C(O)C=CC(=O)C5(C)C4CCC32C)C1 (stereo not given) (field: TGI) = > 100 µM
